Numbers sourced from paper PMC5303205.

Each entry below carries its reported CL/F.
assay: Multi-component pharmacokinetics of AAs in rats after oral administration of AF and HAF extracts (HPLC-MS/MS of plasma); design: species or system Sprague–Dawley (SD) rats; conditions: Sprague-Dawley, rat, in vivo, 8 mg/kg, AF extract, mid dose (8.0 mg/kg as AA I), analyte dose mg/kg: AA I 8.0, AA II 0.56, AA C 3.78, AA D 4.26, 7-OH AA I 6.22, n = 6, read-out: CLz/F (converted)

Cpd Smiles: COc1c(O)ccc2c1cc([N+](=O)[O-])c1c(C(=O)O)cc3c(c12)OCO3
Unit Info: mL/min/kg
CL/F: 92.5
--
Cpd Smiles: COc1cc(O)cc2c1cc([N+](=O)[O-])c1c(C(=O)O)cc3c(c12)OCO3
Unit Info: mL/min/kg
CL/F: 359
--
Cpd Smiles: O=C(O)c1cc2c(c3c1c([N+](=O)[O-])cc1ccccc13)OCO2
Unit Info: mL/min/kg
CL/F: 1.17
--
Cpd Smiles: COc1cccc2c1cc([N+](=O)[O-])c1c(C(=O)O)cc3c(c12)OCO3
Unit Info: mL/min/kg
CL/F: 10.8

====

Each entry below carries its reported Post-preparation stability (RSD/%).
test: Stability of AAs in rat plasma (QC samples, HPLC-MS/MS); assay type: in vitro ADME; conditions: prepared rat plasma samples at room temperature for 24 h; high QC conc ng/mL: AA I 1830, AA II 3200, AA C 2980, AA D 3680, 7-OH AA I 3280; n = 5

Compound: O=C(O)c1cc2c(c3c1c([N+](=O)[O-])cc1ccccc13)OCO2 [AA II]
Post-preparation stability (RSD/%): 6.5

Compound: COc1cc(O)cc2c1cc([N+](=O)[O-])c1c(C(=O)O)cc3c(c12)OCO3 [AA D]
Post-preparation stability (RSD/%): 2.8

Compound: COc1cccc2c1cc([N+](=O)[O-])c1c(C(=O)O)cc3c(c12)OCO3 [AA I]
Post-preparation stability (RSD/%): 4.5

Compound: COc1c(O)ccc2c1cc([N+](=O)[O-])c1c(C(=O)O)cc3c(c12)OCO3 [7-OH AA I]
Post-preparation stability (RSD/%): 6.7

====

test: Multi-component pharmacokinetics of AAs in rats after oral administration of AF and HAF extracts (HPLC-MS/MS of plasma); parameters: species or system Sprague–Dawley (SD) rats; conditions: Sprague-Dawley, rat, in vivo, 3 mg/kg, AF extract, low dose (3.0 mg/kg as AA I), analyte dose mg/kg: AA I 3.0, AA II 0.21, AA C 1.42, AA D 1.60, 7-OH AA I 2.33, n = 6

Cpd Smiles: COc1cc(O)cc2c1cc([N+](=O)[O-])c1c(C(=O)O)cc3c(c12)OCO3
Tmax (min): 33.6
--
Cpd Smiles: COc1cccc2c1cc([N+](=O)[O-])c1c(C(=O)O)cc3c(c12)OCO3
Tmax (min): 30
--
Cpd Smiles: O=C(O)c1cc2c(c3c1c([N+](=O)[O-])cc1ccccc13)OCO2
Tmax (min): 61.8
--
Cpd Smiles: COc1c(O)ccc2c1cc([N+](=O)[O-])c1c(C(=O)O)cc3c(c12)OCO3
Tmax (min): 38.4
